Target: KRAS-G12D protein (Homo sapiens, UniProt P01116, G12D)
Sequence (P01116 1-188 isoform P01116-2 G12D): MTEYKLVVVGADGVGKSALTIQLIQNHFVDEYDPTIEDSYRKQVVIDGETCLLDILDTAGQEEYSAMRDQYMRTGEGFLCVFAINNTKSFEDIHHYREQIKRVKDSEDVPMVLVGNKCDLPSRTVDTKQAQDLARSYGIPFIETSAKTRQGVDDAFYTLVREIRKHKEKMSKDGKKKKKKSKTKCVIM
Experiment: SOS-mediated nucleotide exchange assay (BODIPY-GDP / Tb-streptavidin TR-FRET)
Format: biochemical
*1 amine or outer side, *2 acyl side, *3 side chain or, on linkers, in order; H or OH if unused. Where a SMILES comes first, the peptide text is derived from it. [ ]: non-standard residue; d: D form. Ala(pyrimidin-5-yl) = N[C@@H](Cc1cncnc1)C(=O)O; Ala(2-pyrazinyl) = N[C@@H](Cc1cnccn1)C(=O)O; Phe(2-F) = N[C@@H](Cc1ccccc1F)C(=O)O; X1 = O=C(C12CC(CN[*:1])(C1)C2)[*:2]; X17 = O=C([C@H](CCCCF)N[*:1])[*:2]; NMeF = CN[C@@H](Cc1ccccc1)C(=O)O; PhLac = O=C(O)[C@@H](O)Cc1ccccc1; NMeA = CN[C@@H](C)C(=O)O; Nle = CCCC[C@H](N)C(=O)O
observable: pEC50
Scale for pEC50: -log10 of concentration given in mol/L; no unit attached.

Task item: Reported pEC50 for CCCC[C@@H]1NC(=O)[C@H](Cc2cncnc2)NC(=O)[C@H](C)N(C)C(=O)[C@H](Cc2ccccc2)OC(=O)C23CC(CNC(=O)[C@H](Cc4ccccc4)N(C)C(=O)[C@H](CCCCF)NC(=O)[C@H](Cc4ccccc4F)NC1=O)(C2)C3 [compound 131] (cyclo([NMeA][Ala(pyrimidin-5-yl)][Nle][Phe(2-F)][X17][NMeF][X1][PhLac])) : what is it?
Reply: 8.00

Task item: Reported pEC50 for CCCC[C@@H]1NC(=O)[C@H](Cc2cnc(C#N)nc2)NC(=O)[C@H](C)N(C)C(=O)[C@H](Cc2ccccc2)OC(=O)C23CC(CNC(=O)[C@H](Cc4ccccc4)N(C)C(=O)[C@H](CCCC)NC(=O)[C@H](Cc4ccccc4F)NC1=O)(C2)C3 (single isomer, unassigned) [compound 315] : what is it?
Reply: 8.28

Task item: Reported pEC50 for CCCC[C@@H]1NC(=O)[C@H](Cc2cnccn2)NC(=O)[C@H](C)N(C)C(=O)[C@H](Cc2ccccc2)OC(=O)C23CC(CNC(=O)[C@H](Cc4ccccc4)N(C)C(=O)[C@H](CCCC)NC(=O)[C@H](Cc4ccccc4F)NC1=O)(C2)C3 [compound 322] (cyclo([NMeA][Ala(2-pyrazinyl)][Nle][Phe(2-F)][Nle][NMeF][X1][PhLac])) : what is it?
Reply: 5.64
